- ASSAYED TARGET: GRK2 (Homo sapiens)
- Sequence (P25098 whole entry): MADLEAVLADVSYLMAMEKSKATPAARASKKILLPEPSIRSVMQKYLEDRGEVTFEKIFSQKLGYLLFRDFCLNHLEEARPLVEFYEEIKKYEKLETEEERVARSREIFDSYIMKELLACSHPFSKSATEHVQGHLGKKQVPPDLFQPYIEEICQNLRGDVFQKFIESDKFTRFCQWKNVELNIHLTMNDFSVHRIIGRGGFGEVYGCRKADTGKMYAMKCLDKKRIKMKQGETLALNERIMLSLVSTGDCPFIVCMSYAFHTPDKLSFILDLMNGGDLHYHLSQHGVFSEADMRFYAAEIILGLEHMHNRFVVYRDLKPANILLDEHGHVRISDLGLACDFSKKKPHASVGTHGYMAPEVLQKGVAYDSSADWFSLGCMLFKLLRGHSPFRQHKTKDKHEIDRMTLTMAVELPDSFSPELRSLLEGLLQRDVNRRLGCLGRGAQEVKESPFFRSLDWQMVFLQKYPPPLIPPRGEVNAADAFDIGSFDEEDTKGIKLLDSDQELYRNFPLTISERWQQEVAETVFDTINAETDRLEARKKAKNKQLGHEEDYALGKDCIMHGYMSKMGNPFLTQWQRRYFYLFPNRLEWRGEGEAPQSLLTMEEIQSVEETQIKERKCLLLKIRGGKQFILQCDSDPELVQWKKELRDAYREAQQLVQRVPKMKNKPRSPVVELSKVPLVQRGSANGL
Define the label as YES when IC50 is strictly less than 10 nM and as NO in all remaining cases.

COMPOUND	GROUP LABEL
COc1cc(F)cc(C2CCCCC3c4ccc(-c5cn[nH]c5)cc4C(=O)N23)c1 (stereo not drawn) [Compound 4]	YES
COc1cccc(C2CCCCC3c4ccc(-c5cn[nH]c5)cc4C(=O)N23)c1 (single isomer, unassigned) [Compound 1]	YES
O=C1c2cc(-c3cn[nH]c3)ccc2C2CCCCC(c3cccc(O)c3)N12 (single isomer, unassigned) [Compound 2]	YES
COc1cccc(C2CCCCC3c4ccc(-c5cn[nH]c5)cc4C(=O)N23)c1 (single isomer, unassigned) [Compound 5]	NO
COc1cccc([C@H]2COC/C=C\CC3c4ccc(-c5cn[nH]c5)nc4C(=O)N32)c1 (mixture of isomers) [Compound 14]	NO
COc1cccc([C@H]2COC/C=C\CC3c4ccc(-c5cn[nH]c5)cc4C(=O)N32)c1 (mixture of isomers) [Compound 8]	NO
